Assay: LXFS 1129 SCLC PDX model
Design: species or system mice
Details: female, NMRI-Foxnlnu, mouse, in vivo, oral, 5 mg base/kg; read-out: AUC0-24
Quantity: AUC(0-t)

Write down AUC(0-t) measured for item COc1ccc(-c2c(-c3ccc(C#N)c(F)c3)nc(N3CCC(N)CC3)n(C)c2=O)cc1F
1260 ng·h/mL

====

Assay: in vivo
Settings: female, Beagle, dog, po, 0.5 mg/kg, Cmax
Quantity: Cmax (ng/mL)
Numbers only; they are read as ng/mL.

Supply measured Cmax of COc1ccc(-c2c(-c3ccc(C#N)c(F)c3)nc(N3CCC(N)CC3)n(C)c2=O)cc1F in your reply.
26.6
